Reference source for all entries: patent US20250325672A1

molecular target: COVID-19 S1 Spike Protein Mutant F490L (SARS-CoV-2), P0DTC2; assay: FP direct binding
Non-standard residues stand in square brackets, D forms with d. No end group written: not given here. Sar = CNCC(=O)O
Assignment: determine reported Kd for the given binders.
Give bare numbers, in nM.

Binder: ACDVCGLNAFNRCA[Sar][Sar][Sar][Sar][Sar][Sar][KFl] (cysteine pairing not given here) [BCY16287]
Kd (nM): 49

Moving on to another binder below.
Could you tell me which Kd is on file for ACEDHDWVYCSTCA[Sar][Sar][Sar][Sar][Sar][Sar][KFl] (cysteine pairing not given here) [BCY15299] ?
441
